Procedure Text: self-splicing fitness, log relative to wild type (ln ratio); higher = more splicing; Tetrahymena group I intron in knt gene, E. coli kanamycin selection, DiMSum; sequences stand for … in CUCUCU…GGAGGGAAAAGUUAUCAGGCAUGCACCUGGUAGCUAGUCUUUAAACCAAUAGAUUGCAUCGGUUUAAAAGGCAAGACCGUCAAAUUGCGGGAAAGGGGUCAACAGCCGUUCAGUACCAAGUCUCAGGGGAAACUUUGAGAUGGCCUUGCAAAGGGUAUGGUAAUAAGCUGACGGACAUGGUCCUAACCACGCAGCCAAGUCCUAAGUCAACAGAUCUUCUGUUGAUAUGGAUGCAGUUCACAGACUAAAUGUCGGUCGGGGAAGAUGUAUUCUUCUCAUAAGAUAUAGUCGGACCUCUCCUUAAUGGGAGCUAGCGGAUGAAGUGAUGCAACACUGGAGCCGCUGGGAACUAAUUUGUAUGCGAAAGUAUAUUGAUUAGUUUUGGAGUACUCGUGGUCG;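 also: selection with 25 µg/mL kanamycin versus none on LB agar overnight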
Stated Conditions: 37 °C
Form field: self-splicing fitness (ln) (one value per entry).
Measured Attribute: self-splicing fitness (ln)

1. AGGGAGCAAUAUUACGGCGA    -2.62
2. CAUCAGCAAUAUUACGCUGG    -2.97
3. UGGAAGCAAUAUUACGUUCA    0.00518
4. CCGUAGCAAUAUUACGACGC    -3.08
5. AGCAAGCAAUAUUACGUCAG    -1.55
6. GUGUAGCAAUAUUACGAGGG    -2.99
7. UUCCAGCAAUAUUACGCGGU    -2.54
8. UAUUAGCAAUAUUACGUGUU    -2.86
9. GGAGAGCAAUAUUACGCGAC    -2.22
10. GCGGAGCAAUAUUACGAUAA    -2.08
11. AAAAAGCAAUAUUACGCGGA    -0.504
12. CGGCAGCAAUAUUACGUGUC    -2.6
13. GUUUAGCAAUAUUACGUGAG    -0.124
14. AAGGAGCAAUAUUACGUCAC    -1.45
15. UCUGAGCAAUAUUACGCAUG    -1.65
16. UAGUAGCAAUAUUACGGCCU    -0.218
17. UAUCAGCAAUAUUACGUUAG    -1.03
18. UCAUAGCAAUAUUACGCGGG    -1.99
19. AGAAAGCAAUAUUACGAAAA    -0.577
20. UGUCAGCAAUAUUACGGAAG    -0.569
21. AGUAAGCAAUAUUACGAGCG    -0.0455
22. AAUAAGCAAUAUUACGGAGU    -2.13
23. ACAGAGCAAUAUUACGAGCU    -2.22
24. CCGGAGCAAUAUUACGGUGA    -2.29
25. CACGAGCAAUAUUACGGAUC    -2.84
26. ACCUAGCAAUAUUACGUCUC    -0.658
27. AGACAGCAAUAUUACGUAUC    -1.52
28. UACAAGCAAUAUUACGUGAU    -1.34
29. CGGAAGCAAUAUUACGGAAA    -2.23
30. CCGUAGCAAUAUUACGAUCA    -2.34
31. ACUUAGCAAUAUUACGCAUU    -1.47
32. UAACAGCAAUAUUACGCACA    0.114
33. UUGGAGCAAUAUUACGCAGU    -2.84
34. GAUAAGCAAUAUUACGCGAU    -2.82

All values here come from the supplement of paper PMC7877785.
